Tested system: Human Dopamine Transporter (DAT) (Homo sapiens, UniProt Q01959)
Construct: expressed in transfected cells; host or cells: HEK cells
Sequence (Q01959 whole entry): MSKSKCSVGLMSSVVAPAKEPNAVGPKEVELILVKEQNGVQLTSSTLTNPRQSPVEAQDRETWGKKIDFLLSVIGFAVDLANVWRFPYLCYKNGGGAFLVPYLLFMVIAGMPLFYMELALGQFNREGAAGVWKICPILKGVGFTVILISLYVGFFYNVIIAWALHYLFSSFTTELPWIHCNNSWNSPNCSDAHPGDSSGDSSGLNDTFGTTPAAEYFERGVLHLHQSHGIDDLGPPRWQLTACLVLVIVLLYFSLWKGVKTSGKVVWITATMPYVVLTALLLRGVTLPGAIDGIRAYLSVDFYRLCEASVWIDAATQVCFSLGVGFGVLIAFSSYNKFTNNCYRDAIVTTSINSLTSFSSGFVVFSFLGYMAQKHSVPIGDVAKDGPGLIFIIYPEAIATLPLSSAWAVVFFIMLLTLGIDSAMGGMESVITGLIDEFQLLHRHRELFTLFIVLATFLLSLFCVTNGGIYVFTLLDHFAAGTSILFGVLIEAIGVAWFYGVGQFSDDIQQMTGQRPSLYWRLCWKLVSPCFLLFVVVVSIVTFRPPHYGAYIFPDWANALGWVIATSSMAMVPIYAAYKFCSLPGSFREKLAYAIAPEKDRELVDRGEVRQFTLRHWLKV
Test name: Human Dopamine Transporter (DAT) Uptake Inhibition Assay ([3H]-Dihydroxyphenylethylamine uptake in HEK cells)
Assay type: cell-based
Experimental setup: 10 half-log dilutions from 100 μM; HEK cells expressing recombinant DAT; individual experiments separated by commas; read-out: DAT Uptake Inhibition IC50
Measured metric: IC50 (µM)

Compound: CC(N)Cc1ccc2ncsc2c1 (stereo not shown)
Measured metric: IC50
Qualifier: >
Result number: 100
--
Compound: CNC(C)Cc1ccc2ncsc2c1 (stereo not shown)
Measured metric: IC50
Qualifier: =
Result number: 21.8
--
Compound: CNC(C)Cc1ccc2scnc2c1 (stereo not shown)
Measured metric: IC50
Qualifier: =
Result number: 35.8
--
Compound: CC(N)Cc1ccc2scnc2c1 (stereo not shown)
Measured metric: IC50
Qualifier: =
Result number: 20.7
--
Compound: CNC(C)Cc1ccc2c(c1)OCO2 (stereo not shown) [18 MDMA, 3,4-methylenedioxymethamphetamine, reference compound]
Measured metric: IC50
Qualifier: =
Result number: 5.29
--
Compound: C[C@H](N)Cc1ccc2ncsc2c1
Measured metric: IC50
Qualifier: >
Result number: 100
--
Compound: CN[C@@H](C)Cc1ccc2ncsc2c1
Measured metric: IC50
Qualifier: >
Result number: 100

---

Tested system: Human Serotonin Transporter (SERT) (Homo sapiens, UniProt P31645)
Construct: expressed in transfected cells; host or cells: HEK cells
Sequence (P31645 whole entry): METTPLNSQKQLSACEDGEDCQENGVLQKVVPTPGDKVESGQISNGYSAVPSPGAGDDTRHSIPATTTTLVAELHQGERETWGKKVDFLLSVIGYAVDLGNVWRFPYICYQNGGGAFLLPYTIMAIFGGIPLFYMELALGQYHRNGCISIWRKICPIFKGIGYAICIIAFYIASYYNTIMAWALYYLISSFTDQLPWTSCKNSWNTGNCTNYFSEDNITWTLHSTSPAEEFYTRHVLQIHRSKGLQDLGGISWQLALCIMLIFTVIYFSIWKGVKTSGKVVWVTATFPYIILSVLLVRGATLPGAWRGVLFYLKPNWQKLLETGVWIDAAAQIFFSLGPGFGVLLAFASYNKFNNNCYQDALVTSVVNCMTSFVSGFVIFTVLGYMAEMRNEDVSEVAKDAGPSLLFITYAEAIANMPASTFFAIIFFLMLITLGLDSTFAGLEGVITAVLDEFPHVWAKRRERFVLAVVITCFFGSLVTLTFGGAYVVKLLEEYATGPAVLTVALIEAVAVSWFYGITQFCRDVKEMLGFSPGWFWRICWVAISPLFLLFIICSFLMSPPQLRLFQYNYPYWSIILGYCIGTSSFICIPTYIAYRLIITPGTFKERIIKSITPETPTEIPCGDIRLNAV
Test name: Human Serotonin Transporter (SERT) Uptake Inhibition Assay ([3H]-Serotonin uptake in HEK cells)
Format: cell-based
Experimental setup: HEK293, 1 uM test compound; HEK cells expressing recombinant SERT; individual experiments separated by commas
Experimental: Compound activity is assessed using an in vitro assay. Briefly, HEK cells expressing recombinant serotonin transporter (SERT) are plated at 50,000 cells/well on a 96 well plate pre-coated with Matrigel one day prior to the experiment. […] Radioactivity is counted with Microbeta Counter and reported as counts per minute (CPM). […] IC50s were determined using the log(inhibitor) vs. normalized response—Variable slope model in GraphPad Prism 10.1.0 and are summarized in Table 3.

Compound: CNC(C)Cc1ccn2ccnc2c1 (stereo not shown)
Tested system: Human Serotonin Transporter (SERT) (Homo sapiens, UniProt P31645)
Unit descriptor: %
inhibition at 1 µM: 3.6
//
Compound: CC(N)Cc1ccn2ccnc2c1 (stereo not shown)
Tested system: Human Serotonin Transporter (SERT) (Homo sapiens, UniProt P31645)
Unit descriptor: %
inhibition at 1 µM: -0.48
//
Compound: CC(N)Cc1ccc2scnc2c1 (stereo not shown)
Tested system: Human Serotonin Transporter (SERT) (Homo sapiens, UniProt P31645)
Unit descriptor: %
inhibition at 1 µM: 24
//
Compound: CNC(C)Cc1ccc2scnc2c1 (stereo not shown)
Tested system: Human Serotonin Transporter (SERT) (Homo sapiens, UniProt P31645)
Unit descriptor: %
inhibition at 1 µM: 20.2

---

Tested system: Human Serotonin Transporter (SERT) (Homo sapiens, UniProt P31645)
Construct: expressed in transfected cells; host or cells: HEK cells
Test name: Human Serotonin Transporter (SERT) Uptake Inhibition Assay ([3H]-Serotonin uptake in HEK cells)
Type: cell-based
Experimental setup: HEK293, 10 uM test compound; HEK cells expressing recombinant SERT; individual experiments separated by commas
This listing pairs compounds with measured inhibition at 10 µM.
Measured metric: inhibition at 10 µM (%)

Compound: CNC(C)Cc1ccc2ncnn2c1 (stereo not drawn)
Measured metric: inhibition at 10 µM
Unit descriptor: %
Result number: 0.25
//
Compound: C[C@@H](N)Cc1ccc2ncsc2c1
Measured metric: inhibition at 10 µM
Unit descriptor: %
Result number: 38
//
Compound: CC(N)Cc1ccc2conc2c1 (stereo not drawn)
Measured metric: inhibition at 10 µM
Unit descriptor: %
Result number: 45.5
